Examples of binders with documented human MASP2 IC50 follow.
- Target Entity: Recombinant human MASP2 enzyme (fragment corresponding to amino acids 297-686, C-terminal His Tag) (human, UniProt O00187 297-686)
- Sequence (O00187 other isoform, or with tags, fused parts or gaps limits assumed): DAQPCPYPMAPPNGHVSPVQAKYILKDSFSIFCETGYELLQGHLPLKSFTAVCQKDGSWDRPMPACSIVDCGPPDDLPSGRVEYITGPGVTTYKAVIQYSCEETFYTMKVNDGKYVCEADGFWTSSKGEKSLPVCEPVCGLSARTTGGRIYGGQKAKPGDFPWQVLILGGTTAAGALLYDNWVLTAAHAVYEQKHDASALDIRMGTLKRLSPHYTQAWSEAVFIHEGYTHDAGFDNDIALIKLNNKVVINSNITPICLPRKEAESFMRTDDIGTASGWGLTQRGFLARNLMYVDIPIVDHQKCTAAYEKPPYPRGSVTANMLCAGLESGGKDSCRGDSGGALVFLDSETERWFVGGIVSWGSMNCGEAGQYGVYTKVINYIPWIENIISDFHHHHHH
- Assay Text: cell-based or functional assay
Numbered stars: 1 amine (or outer) side, 2 acyl side, 3 side chain; on linkers, the order of the positions; unused ones are H or OH. Bridge positions count the residues as written; N and C are the ends. Square brackets hold non-standard residues; d marks the D form. Ends that are not written are not given here. X12 = (S)‑(trifluoromethyl)‑L‑cysteine, O=C([C@H](CSC(F)(F)F)N[*:1])[*:2]; Oic = O=C(O)[C@@H]1C[C@@H]2CCCC[C@@H]2N1; NMeI = CC[C@H](C)[C@H](NC)C(=O)O; tBuAla = CC(C)(C)C[C@H](N)C(=O)O; Chg = N[C@H](C(=O)O)C1CCCCC1; Pen = CC(C)(S)[C@H](N)C(=O)O; NMeC = CN[C@@H](CS)C(=O)O; Orn = NCCC[C@H](N)C(=O)O; Ac4c = NC1(C(=O)O)CCC1; Sar = CNCC(=O)O
Write the number in nM without appending the unit.

Reference set (4 entries):
Binder	Unit Spec	Recorded Result
[(2S)‑2((Amino)-2-(tetrahydro-2H-pyran-4-yl))acetic acid]ICSRSLP[Oic]ICI-OH (disulfide 3-11) [((2S)-2[(Amino)-2-(tetrahydro-2H-pyran-4-yl)]acetic acid)-IC+SRSLP-(Oic)-IC+I-OH]	nM	200
AICSRS[tBuAla]P[Oic]I[NMeC]IPD-NH2 (disulfide 3-11; N-terminus assumed; SMILES CC[C@H](C)[C@H](NC(=O)[C@H](C)N)C(=O)N[C@H]1CSSC[C@@H](C(=O)N[C@H](C(=O)N2CCC[C@H]2C(=O)N[C@@H](CC(=O)O)C(N)=O)[C@@H](C)CC)N(C)C(=O)[C@H]([C@@H](C)CC)NC(=O)[C@@H]2C[C@@H]3CCCC[C@@H]3N2C(=O)[C@@H]2CCCN2C(=O)[C@H](CC(C)(C)C)NC(=O)[C@H](CO)NC(=O)[C@H](CCCNC(=N)N)NC(=O)[C@H](CO)NC1=O) [AIC+SRS-((tBu)A)-P-(Oic)-I-((N-Me)C)+IPD-NH2]	nM	370
[Orn]ICSRS[X12]PPI[Pen]IP-NH2 (disulfide 3-11; N-terminus assumed; SMILES CC[C@H](C)[C@H](NC(=O)[C@@H](N)CCCN)C(=O)N[C@H]1CSSC(C)(C)[C@@H](C(=O)N[C@H](C(=O)N2CCC[C@H]2C(N)=O)[C@@H](C)CC)NC(=O)[C@H]([C@@H](C)CC)NC(=O)[C@@H]2CCCN2C(=O)[C@@H]2CCCN2C(=O)[C@H](CSC(F)(F)F)NC(=O)[C@H](CO)NC(=O)[C@H](CCCNC(=N)N)NC(=O)[C@H](CO)NC1=O) [(Orn)-IC+SRS-((S)-(trifluoromethyl)-L-cysteine)-PPI-(Pen)+IP-NH2]	nM	56
[Ac4c]ICSRS[tBuAla]PPI[Pen]I-NH2 (disulfide 3-11; N-terminus assumed; SMILES CC[C@H](C)[C@H](NC(=O)[C@H]1NC(=O)[C@H]([C@@H](C)CC)NC(=O)[C@@H]2CCCN2C(=O)[C@@H]2CCCN2C(=O)[C@H](CC(C)(C)C)NC(=O)[C@H](CO)NC(=O)[C@H](CCCNC(=N)N)NC(=O)[C@H](CO)NC(=O)[C@@H](NC(=O)[C@@H](NC(=O)C2(N)CCC2)[C@@H](C)CC)CSSC1(C)C)C(N)=O) [(ACBA)-IC+SRS-((tBu)A)-PPI-(Pen)+I-NH2]	nM	15

Answer with the recorded human MASP2 IC50 for the binder listed here: ICSRS[tBuAla]PPI[NMeC]IPD-NH2 (disulfide 2-10; N-terminus assumed; SMILES CC[C@H](C)[C@H](N)C(=O)N[C@H]1CSSC[C@@H](C(=O)N[C@H](C(=O)N2CCC[C@H]2C(=O)N[C@@H](CC(=O)O)C(N)=O)[C@@H](C)CC)N(C)C(=O)[C@H]([C@@H](C)CC)NC(=O)[C@@H]2CCCN2C(=O)[C@@H]2CCCN2C(=O)[C@H](CC(C)(C)C)NC(=O)[C@H](CO)NC(=O)[C@H](CCCNC(=N)N)NC(=O)[C@H](CO)NC1=O) [IC+SRS-((tBu)A)-PP-I-((N-Me)C)+IPD-NH2]
620

Give a short answer stating reported human MASP2 IC50 for AICSRSLPP[Chg][Pen]IPD-NH2 (disulfide 3-11; N-terminus assumed; SMILES CC[C@H](C)[C@H](NC(=O)[C@H](C)N)C(=O)N[C@H]1CSSC(C)(C)[C@@H](C(=O)N[C@H](C(=O)N2CCC[C@H]2C(=O)N[C@@H](CC(=O)O)C(N)=O)[C@@H](C)CC)NC(=O)[C@H](C2CCCCC2)NC(=O)[C@@H]2CCCN2C(=O)[C@@H]2CCCN2C(=O)[C@H](CC(C)C)NC(=O)[C@H](CO)NC(=O)[C@H](CCCNC(=N)N)NC(=O)[C@H](CO)NC1=O) [AIC+SRSLPP-(Chg)-(Pen)+IPD-NH2] .
44

Please supply the value of reported human MASP2 IC50 for the item [Sar]ICSRS[tBuAla]PPICIPD-OH (disulfide 3-11; N-terminus assumed; SMILES CC[C@H](C)[C@H](NC(=O)CNC)C(=O)N[C@H]1CSSC[C@@H](C(=O)N[C@H](C(=O)N2CCC[C@H]2C(=O)N[C@@H](CC(=O)O)C(=O)O)[C@@H](C)CC)NC(=O)[C@H]([C@@H](C)CC)NC(=O)[C@@H]2CCCN2C(=O)[C@@H]2CCCN2C(=O)[C@H](CC(C)(C)C)NC(=O)[C@H](CO)NC(=O)[C@H](CCCNC(=N)N)NC(=O)[C@H](CO)NC1=O) [((N-Me)G)-IC+SRS-((tBu)A)-PPIC+IPD-OH]
2600

Provide measured human MASP2 IC50 value, entry: A[NMeI]CSRSLPPICIPD-NH2 (disulfide 3-11; N-terminus assumed; SMILES CC[C@H](C)[C@@H]1NC(=O)[C@@H]2CCCN2C(=O)[C@@H]2CCCN2C(=O)[C@H](CC(C)C)NC(=O)[C@H](CO)NC(=O)[C@H](CCCNC(=N)N)NC(=O)[C@H](CO)NC(=O)[C@@H](NC(=O)[C@H]([C@@H](C)CC)N(C)C(=O)[C@H](C)N)CSSC[C@@H](C(=O)N[C@H](C(=O)N2CCC[C@H]2C(=O)N[C@@H](CC(=O)O)C(N)=O)[C@@H](C)CC)NC1=O) [A-((N-Me)I)-C+SRSLPPIC+IPD-NH2]
2700
